target: Gab2 (Homo sapiens); test: flow
// pKd lookup, one value per entry
Formally, pKd is defined as -log10 of the concentration c, with c in mol/L.

Before answering, review these 5 worked examples.
Binder	pKd
SHP2 N-SH2, Q06124 (protein) WFHPNITGVEAENLLLTRGVDGSFLARPSKSNPGDFTLSVRRNGAVTHIKVQNTGDYYDLYGGEKFATLAELVQYYMEHHGQLKEKNGDVIELKYPL	7.52
SHP2 N-SH2, Q06124 (protein) WFHPNITGVEAENALLTRGVDGSFLARPSKSNPGDFTLSVRRNGAVTHIKIQNTGDYYDLYGGEKFATLAELVQYYMEHHGQLKEKNGDVIELKYPL	6.77
SHP2 N-SH2, Q06124 (protein) WFHPNITGVEAENLLLTRGVDGSFLARPSKSNPGDFTLSVRRNGAVTHIKIQNSGDYYDLYGGEKFATLAELVQYYMEHHGQLKEKNGDVIELKYPL	6.92
SHP2 N-SH2, Q06124 (protein) WFHPNITGVEAENLLLSRGVDGSFLARPSKSNPGDFTLSVRRNGAVTHIKIQNTGDYYDLYGGEKFATLAELVQYYMEHHGQLKEKNGDVIELKYPL	7.00
SHP2 N-SH2, Q06124 (protein) WFHPNITGVEAENLLLTRGVDGSFLGRPSKSNPGDFTLSVRRNGAVTHIKIQNTGDYYDLYGGEKFATLAELVQYYMEHHGQLKEKNGDVIELKYPL	7.15

**Q:** pKd for SHP2 N-SH2, Q06124 (protein) WFHPNISGVEAENLLLTRGVDGSFLARPSKSNPGDFTLSVRRNGAVTHIKIQNTGDYYDLYGGEKFATLAELVQYYMEHHGQLKEKNGDVIELKYPL ?
**A:** 7.10

**Q:** And then SHP2 N-SH2, Q06124 (protein) WFHPNITGVEAENLLLTRGVDGSFLARPSKSNPGDFSLSVRRNGAVTHIKIQNTGDYYDLYGGEKFATLAELVQYYMEHHGQLKEKNGDVIELKYPL , what is it?
**A:** 8.30
